- experiment notes: pKa determination, potentiometric
- condition notes: second pKa column, this work, 25°C, […] KCl (footnote b)
measurement name: pKa
Form field (numeric): enter value without unit.

Entry O=C(O)CCCc1ccc(N(CCCl)CCCl)cc1 [Chlorambucil] : reported pKa = ?
4.28

----------
Please provide measured obs–calc (log Po^in situ) for the entries that follow.
- experiment notes: In combo PAMPA-BBB model, calculated log Po in situ
- condition notes: difference observed minus calculated, external set, no efflux inhibition
Form field (numeric): enter value without unit.

Entry CC(=O)[C@H]1CC[C@H]2[C@@H]3CCC4=CC(=O)CC[C@]4(C)[C@H]3CC[C@]12C [Progesterone] : reported obs–calc (log Po^in situ) = ?
−0.6

Entry O=c1c(O)c(-c2ccc(O)c(O)c2)oc2cc(O)cc(O)c12 [Quercetin] : reported obs–calc (log Po^in situ) = ?
−0.4

Entry OCCN1CCN(CCCN2c3ccccc3Sc3ccc(Cl)cc32)CC1 [Perphenazine] : reported obs–calc (log Po^in situ) = ?
−0.9

Entry CN1CCCCC1CCN1c2ccccc2Sc2ccc([S+](C)[O-])cc21 (stereo not drawn) [Mesoridazine] : reported obs–calc (log Po^in situ) = ?
0.8

Entry CN1CCN(CCCN2c3ccccc3Sc3ccc(C(F)(F)F)cc32)CC1 [Trifluoperazine] : reported obs–calc (log Po^in situ) = ?
−1.1

Entry CNS(=O)(=O)Cc1ccc2[nH]cc(CCN(C)C)c2c1 [Sumatriptan] : reported obs–calc (log Po^in situ) = ?
0.0

----------
- condition notes: PAMPA
Please provide measured log Ppara for the entries that follow.

Entry CC(=O)CC(c1ccccc1)c1c(O)c2ccccc2oc1=O (stereo not shown) : reported log Ppara = ?
−8.00

Entry COc1cccc2c1C(=O)c1c(O)c3c(c(O)c1C2=O)C[C@@](O)(C(=O)CO)C[C@@H]3O[C@H]1C[C@H](N)[C@H](O)[C@H](C)O1 : reported log Ppara = ?
−12

Entry O=C1C[C@@H](c2ccc(O)cc2)Oc2cc(O)cc(O)c21 : reported log Ppara = ?
−6.93

Entry OCCN1CCN(CCCN2c3ccccc3Sc3ccc(Cl)cc32)CC1 : reported log Ppara = ?
−5.64

----------
- experiment notes: In combo PAMPA-BBB model, calculated log Po in situ
measurement name: obs–calc (log Po^in situ)
Form field (numeric): enter value without unit.

Entry N[C@@H](Cc1ccc(N(CCCl)CCCl)cc1)C(=O)O : reported obs–calc (log Po^in situ) = ?
0.0

Entry COc1ccc(C(CN(C)C)C2(O)CCCCC2)cc1 (stereo not drawn) : reported obs–calc (log Po^in situ) = ?
0.6

Entry COc1ccc2c3c1O[C@H]1C[C@@H](O)C=C[C@@]31CCN(C)C2 : reported obs–calc (log Po^in situ) = ?
0.2

Entry COc1cccc2c1C(=O)c1c(O)c3c(c(O)c1C2=O)C[C@@](O)(C(C)=O)C[C@@H]3O[C@H]1C[C@H](N)[C@H](O)[C@H](C)O1 : reported obs–calc (log Po^in situ) = ?
0.8

Entry CCOC(=O)C1(c2ccccc2)CCN(C)CC1 : reported obs–calc (log Po^in situ) = ?
−0.5

Entry Cc1nc2n(c(=O)c1CCN1CCC(c3noc4cc(F)ccc34)CC1)CCCC2 : reported obs–calc (log Po^in situ) = ?
0.8

Entry O=C(O)CCCc1ccc(N(CCCl)CCCl)cc1 : reported obs–calc (log Po^in situ) = ?
0.3

Entry CN1C[C@H](C(=O)N[C@]2(C)O[C@@]3(O)[C@@H]4CCCN4C(=O)[C@H](Cc4ccccc4)N3C2=O)C=C2c3cccc4[nH]cc(c34)C[C@H]21 : reported obs–calc (log Po^in situ) = ?
0.1

Entry COc1ccc2c3c1O[C@H]1[C@@H](O)C=C[C@H]4[C@@H](C2)N(C)CC[C@@]341 : reported obs–calc (log Po^in situ) = ?
−0.2

----------
- condition notes: PAMPA, pH 7.4
measurement name: Pm^7.4
Form field (numeric): enter value without unit.

Entry CCN(CC)CCNC(=O)c1cc(Cl)c(N)cc1OC [Metoclopramide] : reported Pm^7.4 = ?
380

Entry CN1CCN(C2=Nc3cc(Cl)ccc3Nc3ccccc32)CC1 [Clozapine] : reported Pm^7.4 = ?
632

Entry CC(=O)CC(c1ccccc1)c1c(O)c2ccccc2oc1=O (stereo not drawn) [Warfarin] : reported Pm^7.4 = ?
1.4

Entry COc1ccc(CCN2CCC(Nc3nc4ccccc4n3Cc3ccc(F)cc3)CC2)cc1 [Astemizole] : reported Pm^7.4 = ?
2422

Entry CCCN1C[C@H](CSC)C[C@@H]2c3cccc4[nH]cc(c34)C[C@H]21 [Pergolide] : reported Pm^7.4 = ?
315

Entry CN(C)CCCC1(c2ccc(F)cc2)OCc2cc(C#N)ccc21 (stereo not drawn) [Citalopram] : reported Pm^7.4 = ?
99

Entry O=c1n(CCCN2CCN(c3cccc(Cl)c3)CC2)nc2ccccn12 [Trazodone] : reported Pm^7.4 = ?
534

Entry Oc1ccc2c3c1O[C@H]1c4[nH]c5ccccc5c4C[C@@]4(O)[C@@H](C2)N(CC2CC2)CC[C@]314 [Naltrindole] : reported Pm^7.4 = ?
659

Entry COc1ccc2c(c1)c(CC(=O)O)c(C)n2C(=O)c1ccc(Cl)cc1 [Indomethacin] : reported Pm^7.4 = ?
3

----------
- condition notes: mouse, in vivo
Mark Criterion not met for log Po^in situ (obs) values under -3, and Criterion met for everything at or above.

Given the entry N[C@@H](Cc1ccc(F)cc1)C(=O)O , answer whether its log Po^in situ (obs) meets or surpasses -3.
Criterion not met

Given the entry N[C@H](Cc1ccc(F)cc1)C(=O)O , answer whether its log Po^in situ (obs) meets or surpasses -3.
Criterion not met

Given the entry CC(C)[C@H](NC(=O)[C@H](CCC(=O)O)NC(=O)[C@H](Cc1ccccc1)NC(=O)[C@@H](C)NC(=O)[C@@H](N)Cc1ccc(O)cc1)C(=O)N[C@H](C(=O)NCC(N)=O)C(C)C , answer whether its log Po^in situ (obs) meets or surpasses -3.
Criterion not met

Given the entry CN(C)C(=O)C(CCN1CCC(O)(c2ccc(Cl)cc2)CC1)(c1ccccc1)c1ccccc1 [Loperamide] , answer whether its log Po^in situ (obs) meets or surpasses -3.
Criterion met

Given the entry CCOC(=O)C1(c2ccccc2)CCN(C)CC1 , answer whether its log Po^in situ (obs) meets or surpasses -3.
Criterion met

Given the entry CCC12CCN(CC3(O)CC3)C(Cc3ccc(O)cc31)C2(C)C (stereo not drawn) , answer whether its log Po^in situ (obs) meets or surpasses -3.
Criterion met

Given the entry COc1ccc2c3c1O[C@H]1C[C@@H](O)C=C[C@@]31CCN(C)C2 , answer whether its log Po^in situ (obs) meets or surpasses -3.
Criterion not met

----------
- condition notes: PAMPA
measurement name: log Po
Form field (numeric): enter value without unit.

Entry COc1ccc2c3c1O[C@H]1[C@@H](O)C=C[C@H]4[C@@H](C2)N(C)CC[C@@]341 : reported log Po = ?
−3.68

Entry COc1cccc2c1C(=O)c1c(O)c3c(c(O)c1C2=O)C[C@@](O)(C(=O)CO)C[C@@H]3O[C@H]1C[C@H](N)[C@H](O)[C@H](C)O1 : reported log Po = ?
−4.23

Entry CNS(=O)(=O)Cc1ccc2[nH]cc(CCN(C)C)c2c1 : reported log Po = ?
−4.86

Entry CNCCCC12CCC(c3ccccc31)c1ccccc12 : reported log Po = ?
−0.56

Entry NNCCc1ccccc1 : reported log Po = ?
−2.20

Entry CSc1ccc2c(c1)N(CCC1CCCCN1C)c1ccccc1S2 (centres unmarked) : reported log Po = ?
−1.27

Entry OCCOCCN1CCN(C2=Nc3ccccc3Sc3ccccc32)CC1 : reported log Po = ?
−2.98

Entry CN(C)CCC=C1c2ccccc2COc2ccccc21 [Doxepin] : reported log Po = ?
−1.60

Entry CCC1(C)CC(=O)NC1=O (centres unmarked) [Ethosuximide] : reported log Po = ?
−5.83

Entry CN1CCN2c3ncccc3Cc3ccccc3C2C1 (centres unmarked) : reported log Po = ?
−2.61

Entry CC[C@]1(O)C[C@H]2CN(CCc3c([nH]c4ccccc34)[C@@](C(=O)OC)(c3cc4c(cc3OC)N(C=O)[C@H]3[C@@](O)(C(=O)OC)[C@H](OC(C)=O)[C@]5(CC)C=CCN6CC[C@]43[C@@H]65)C2)C1 : reported log Po = ?
−4.54

Entry CC(=O)[C@H]1CC[C@H]2[C@@H]3CCC4=CC(=O)CC[C@]4(C)[C@H]3CC[C@]12C : reported log Po = ?
−3.58

Entry N[C@@H](Cc1ccc(N(CCCl)CCCl)cc1)C(=O)O : reported log Po = ?
−7.51

Entry Clc1ccc2c(c1)C(N1CCNCC1)=Nc1ccccc1O2 : reported log Po = ?
−2.37

Entry CN1CCCCC1CCN1c2ccccc2Sc2ccc([S+](C)[O-])cc21 (centres unmarked) : reported log Po = ?
−4.33

Entry Oc1ccc2c3c1O[C@H]1c4[nH]c5ccccc5c4C[C@@]4(O)[C@@H](C2)N(CC2CC2)CC[C@]314 : reported log Po = ?
−2.23

Entry CN1C[C@H](C(=O)N[C@]2(C)O[C@@]3(O)[C@@H]4CCCN4C(=O)[C@H](Cc4ccccc4)N3C2=O)C=C2c3cccc4[nH]cc(c34)C[C@H]21 : reported log Po = ?
−2.50

Entry O=C1C[C@@H](c2ccc(O)cc2)Oc2cc(O)cc(O)c21 : reported log Po = ?
−3.94

Entry CC(=O)CC(c1ccccc1)c1c(O)c2ccccc2oc1=O (centres unmarked) : reported log Po = ?
−3.21

Entry O=C(O)CCCc1ccc(N(CCCl)CCCl)cc1 : reported log Po = ?
−2.45

Entry COc1ccc(CCN2CCC(Nc3nc4ccccc4n3Cc3ccc(F)cc3)CC2)cc1 : reported log Po = ?
−1.39

Entry N[C@@H](Cc1ccc(O)c(O)c1)C(=O)O : reported log Po = ?
−7.81

Entry O=C(CCCN1CCC(O)(c2ccc(Cl)cc2)CC1)c1ccc(F)cc1 : reported log Po = ?
−2.06

Entry COc1ccc2c(c1)c(CC(=O)O)c(C)n2C(=O)c1ccc(Cl)cc1 : reported log Po = ?
−2.67

Entry CNCC[C@@H](Oc1ccccc1C)c1ccccc1 : reported log Po = ?
−1.83

Entry CN1CCN(C2=Nc3cc(Cl)ccc3Nc3ccccc32)CC1 : reported log Po = ?
−2.58

Entry CN(C)CCCN1c2ccccc2Sc2ccc(Cl)cc21 : reported log Po = ?
−1.46

Entry OCCN1CCN(CCCN2c3ccccc3Sc3ccc(Cl)cc32)CC1 : reported log Po = ?
−1.66

Entry O=c1c(O)c(-c2ccc(O)c(O)c2)oc2cc(O)cc(O)c12 : reported log Po = ?
−4.40

Entry CCCN(CCC)S(=O)(=O)c1ccc(C(=O)O)cc1 : reported log Po = ?
−2.97

Entry CC[C@]1(O)C[C@@H]2CN(CCc3c([nH]c4ccccc34)[C@@](C(=O)OC)(c3cc4c(cc3OC)N(C)[C@H]3[C@@](O)(C(=O)OC)[C@H](OC(C)=O)[C@]5(CC)C=CCN6CC[C@]43[C@@H]65)C2)C1 : reported log Po = ?
−4.36

Entry CC(C)(C)c1ccc(C(O)CCCN2CCC(C(O)(c3ccccc3)c3ccccc3)CC2)cc1 (centres unmarked) : reported log Po = ?
−0.54

Entry Cc1cc(=O)n(-c2ccccc2)n1C [Antipyrine] : reported log Po = ?
−6.14

Entry O=c1n(CCCN2CCN(c3cccc(Cl)c3)CC2)nc2ccccn12 : reported log Po = ?
−2.94

Entry OCCOCCN1CCN(C(c2ccccc2)c2ccc(Cl)cc2)CC1 (centres unmarked) [Hydroxyzine] : reported log Po = ?
−3.72
